pIC50: −log10 of the molar value.
Study the reported pIC50 values for Protease (Human immunodeficiency virus 1, UniProt Q9YQ12) given below; they originate from different publications.
readoutKind: pIC50

>>> reportedresult("COc1ccc(S(=O)(=O)N(CC(C)C)C[C@@H](O)[C@H](Cc2ccccc2)NC(=O)O[C@H]2CC[C@H]3OCO[C@@H]23)cc1")
8.42
>>> reportedresult("Cc1ccc(C(C)C)c(SC2=C(O)CC(CCc3ccccc3)(C(C)C)OC2=O)c1 (stereo not drawn)")
8.96
>>> reportedresult("Cc1ccccc1CNC(=O)[C@H]1N(C(=O)[C@@H](O)[C@H](Cc2ccccc2)NC(=O)[C@@H](CS(=O)(=O)c2ccc3ccccc3c2)NS(C)(=O)=O)CSC1(C)C")
10.05
>>> reportedresult("C[C@@H]1O[C@@H](Oc2cc3c(=O)oc4c(O)c(O)cc5c(=O)oc(c2O)c3c45)[C@H](O)[C@H](O)[C@H]1O")
4.97
>>> reportedresult("COC(=O)N[C@H](C(=O)Nc1ccccc1CC[C@@H]1CN[C@H](COC(=O)NCc2ccc(Cl)s2)CO1)C(c1ccccc1)c1ccccc1")
8.62
>>> reportedresult("CC(C)CN(C[C@@H](O)[C@H](Cc1ccccc1)NC(=O)CN[C@H]1CCOC1)S(=O)(=O)c1ccc(N)cc1")
8.39
>>> reportedresult("COc1ccc(S(=O)(=O)N(CC(C)C)C[C@@H](O)[C@H](Cc2ccccc2)NC(=O)CN(CC(=O)N2CCOCC2)c2cccc(O)c2C)cc1")
5.86
>>> reportedresult("CC(C)CN(C[C@@H](O)[C@H](Cc1ccccc1)NC(=O)Cn1ccc(N)nc1=O)S(=O)(=O)c1ccc(N)cc1")
6.81
>>> reportedresult("COc1ccc(S(=O)(=O)N(CC(C)C)C[C@@H](O)[C@H](Cc2ccccc2)NC(=O)Cn2cnc3c(Cl)nc(N)nc32)cc1")
6.24
>>> reportedresult("COc1ccc(S(=O)(=O)N(CC(C)C)C[C@@H](O)[C@H](Cc2ccccc2)NC(=O)Cn2cnc3c(OC)ncnc32)cc1")
6.74
>>> reportedresult("COc1ccc(S(=O)(=O)N(CC(C)C)C[C@@H](O)[C@H](Cc2ccccc2)NC(=O)[C@]2(C)CC[C@@H]3C4=CC(=O)[C@@H]5[C@@]6(C)CC[C@H](O)C(C)(C)[C@@H]6CC[C@@]5(C)[C@]4(C)CC[C@@]3(C)C2)cc1")
5.73
>>> reportedresult("Cc1cccc(C)c1CNC(=O)[C@@H]1CCCCN1C(=O)[C@@H](O)C[C@@H](Cc1ccccc1)C(=O)N[C@H]1c2ccccc2OC[C@H]1O")
7.38

----------
pIC50: −log10 of the molar value.
Study the reported pIC50 values for Protease (Human immunodeficiency virus 1) given below; they originate from different publications.
Lab note: anything with pIC50 at or over 6 counts as y; the rest go in n.

>>> classlabel("Cc1c(O)cccc1N(CC(=O)N[C@@H](Cc1ccccc1)[C@H](O)CN(CC(C)C)S(=O)(=O)c1ccc(N)cc1)CC(=O)N(C)C")
"y"
>>> classlabel("CC1(C)CCC[C@](C)([C@H]2CC[C@]3(C)[C@@H]2C(=O)C[C@@H]2[C@@]4(C)CC[C@H](OC(=O)CC(C)(C)C(=O)O)C(C)(C)[C@@H]4CC[C@]23C)O1")
"n"
>>> classlabel("CC(C)(CC(=O)O)CC(=O)O[C@H]1CC[C@]2(C)[C@H]3CC=C4[C@@H]5CC(C)(C)CC[C@]5(C(=O)NCCCC(=O)NCC(=O)O)CC[C@@]4(C)[C@]3(C)CC[C@H]2C1(C)C")
"n"
>>> classlabel("CC(C)CN(C[C@@H](O)[C@H](Cc1ccccc1)NC(=O)CN(CC(=O)N(C)C)[C@H]1CCOC1)S(=O)(=O)c1ccc(OC(F)(F)F)cc1")
"n"
>>> classlabel("COC(=O)N[C@H](C(=O)Nc1cccc(F)c1CC[C@@H]1CN[C@H](COC(=O)NCC(F)(F)F)CO1)C(c1ccccc1)c1ccccc1")
"y"
>>> classlabel("CC1(C)CC[C@]2(C(=O)NCCCCCCCCCCC(=O)NCC(=O)O)CC[C@]3(C)C(=CC[C@@H]4[C@@]5(C)CC[C@H](OC(=O)c6ccccc6C(=O)O)C(C)(C)[C@@H]5CC[C@]43C)[C@@H]2C1")
"n"
>>> classlabel("CC(C)CN(C[C@@H](O)[C@H](Cc1ccccc1)NC(=O)[C@H](CC(N)=O)NC(=O)c1ccc2ccccc2n1)C(=O)NC(C)(C)C")
"y"
>>> classlabel("CC(=O)N[C@H](C(=O)N[C@H](C(=O)N[C@@H](CC(C)C)[C@@H](O)CC(=O)N[C@@H](C)C(=O)N[C@@H](CC(C)C)[C@@H](O)CC(=O)O)C(C)C)C(C)C")
"y"
>>> classlabel("C=C(C)[C@@H]1CC[C@]2(C(=O)O)CC[C@]3(C)[C@@H](CC[C@@H]4[C@@](C)(CC(=O)O)[C@H](C(C)(C)C(=O)O)CC[C@]43C)[C@H]12")
"n"
>>> classlabel("CC(C)(C)NC(=O)C1CN(Cc2cccnc2)CCN1C[S+]([O-])C[C@H](Cc1ccccc1)C(=O)NC1c2ccccc2CC1O (single isomer, unassigned)")
"n"
>>> classlabel("Cc1ccccc1CNC(=O)[C@H]1N(C(=O)[C@@H](O)[C@H](Cc2ccccc2)NC(=O)[C@@H](CS(=O)(=O)c2cccc3ccccc23)NS(C)(=O)=O)CSC1(C)C")
"y"
>>> classlabel("CCCCCC(=O)O[C@H]1CC[C@]2(C)[C@H]3CC=C4[C@@H]5CC(C)(C)CC[C@]5(C(=O)NCCCC(=O)N[C@@H](C)C(=O)O)CC[C@@]4(C)[C@]3(C)CC[C@H]2C1(C)C")
"n"
>>> classlabel("CC1(C)CCC[C@](C)([C@H]2CC[C@]3(C)[C@@H]2C(=O)C[C@@H]2[C@@]4(C)CCC(=O)C(C)(C)[C@@H]4C(=O)C[C@]23C)O1")
"n"
>>> classlabel("CC(C)[C@H](NC(=O)CCCCCNC(=O)[C@]12CCC(C)(C)C[C@H]1C1=CC[C@@H]3[C@@]4(C)CC[C@H](OC(=O)CC(C)(C)CC(=O)O)C(C)(C)[C@@H]4CC[C@@]3(C)[C@]1(C)CC2)C(=O)O")
"n"
>>> classlabel("CC1(C)CC[C@]2(C(=O)NCCCCCCCCCCC(=O)O)CC[C@]3(C)C(=CC[C@@H]4[C@@]5(C)CC[C@H](OC(=O)CCC(=O)O)C(C)(C)[C@@H]5CC[C@]43C)[C@@H]2C1")
"n"
